System: SW620 (Colorectal Carcinoma)
protocol_summary: combination Emax (second highest fraction inhibited in the dose matrix, 72 h); higher = more inhibition; extreme values may be limits of the assay
molecules and their reported combination Emax
Note: the reply should be a number with no unit written.

I'm curious: which combination Emax was measured for NC1(C(=O)N[C@@H](CCO)c2ccc(Cl)cc2)CCN(c2ncnc3[nH]ccc23)CC1 [Capivasertib] + CCN(CCO)CCCOc1ccc2c(Nc3cc(CC(=O)Nc4cccc(F)c4)[nH]n3)ncnc2c1 [AZD2811] (first compound max 10 µM, 7x7, partner max 1 µM) tested on SW620 (Colorectal Carcinoma)?
0.328

I'm curious: which combination Emax was measured for N#Cc1cnc(Nc2cc(NC[C@H]3CNCCO3)c(C(F)(F)F)cn2)cn1 [SRA737] + CCc1c2c(nc3ccc(O)cc13)-c1cc3c(c(=O)n1C2)COC(=O)[C@]3(O)CC [SN-38] (first compound max 10 µM, 7x7, partner max 0.3 µM) tested on SW620 (Colorectal Carcinoma)?
0.955

I'm curious: which combination Emax was measured for CN(CCO)CC[C@H](CSc1ccccc1)Nc1ccc(S(=O)(=O)NC(=O)c2ccc(N3CCC([C@@H](O)c4ccccc4-c4ccc(Cl)cc4)CC3)cc2)cc1S(=O)(=O)C(F)(F)F [AZD4320] + Cc1cc2ncnn2cc1Nc1ncc2c(n1)n(C1CCOCC1)c(=O)n2C [AZD7648] (first compound max 1 µM, 7x7, partner max 10 µM) tested on SW620 (Colorectal Carcinoma)?
0.233

I'm curious: which combination Emax was measured for C=CCn1c(=O)c2cnc(Nc3ccc(N4CCN(C)CC4)cc3)nc2n1-c1cccc(C(C)(C)O)n1 [AZD1775] + O=C(c1cc(Cc2n[nH]c(=O)c3ccccc23)ccc1F)N1CCN(C(=O)C2CC2)CC1 [Olaparib] (first compound max 1 µM, partner max 10 µM) tested on SW620 (Colorectal Carcinoma)?
0.603

Data origin, for the record: the supplement of paper PMC11061612
